Data origin: PubChem BioAssay

# experimental_details: growth effects on S. cerevisiae YJM789 – YJM789 clinical isolate, OD600, 24 h, basal, primary screen (AID 1089);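 also: growth of clinical yeast isolate S. cerevisiae YJM 789 seeded 1000 cells per well; test concentration not given here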
# conditions: called active from +8 up or from −8 down
Calls of active or inactive are those of the source.
Thanks in advance; please answer with one of these: yes for active, no for inactive

A selection of reference data follows.
compound	category
COc1ccc(C(O)C2C=CC3C(=O)NC(=O)C3N2Nc2ccc(Cl)cc2Cl)c2ccccc12 (stereo unspecified)	yes
CN(C)CCCC[C@@H]1NC(=O)[C@H]2C[C@@H](C(=O)O)[C@@H](c3ccc(O)cc3)N2C1=O	no
COC(=O)[C@@]1(Cc2ccccc2)[C@H]2c3cc(C(=O)N(C)C)n(CCO)c3C[C@H]2CN1C(=O)c1ccccc1	no
COc1ccc([Si](C)(C)[C@@H]2[C@@H](CC(=O)N(CCO)Cc3ccccc3)O[C@]3(C(=O)N(Cc4ccc(I)cc4)c4ccccc43)[C@H]2C)cc1	no
COCCOC(=O)N1C(=O)[C@@]2(c3cc(C#CCCO)ccc31)[C@H](c1ccc(OCCO)cc1)N1[C@H](c3ccccc3)[C@H](c3ccccc3)OC(=O)[C@H]1[C@@H]2C(=O)N1CCCCCCC1	no
CN(C)CCCCNC(=O)[C@H]1C[C@H]2C(=O)N3CCC[C@H]3C(=O)N2[C@H]1c1cccc(OCCO)c1	no
COCCOC(=O)N1C(=O)[C@@]2(c3cc(C#CC4(O)CCCCCC4)ccc31)[C@H](c1ccc(O)cc1)N1[C@H](c3ccccc3)[C@H](c3ccccc3)OC(=O)[C@H]1[C@@H]2C(=O)N1CCCCCCC1	no
O=C1C[C@]2(c3ccc([N+](=O)[O-])cc3)C(=O)N(C3CC3)c3cc(CO)ccc3[C@H]2N1C1CCCCC1	no

Outcome? `C=C(CCCC)/C(=C/C[C@H](OC(=O)c1ccncc1)c1ccc(OCCO)cc1)c1cnc2ccccc2c1` no

Outcome? `COCCCNC(=O)[C@@]1(Sc2ccc(C)cc2)CC(=O)N(Cc2ccccc2C(F)(F)F)[C@@H]1c1ccc(CO)cc1I` no

Outcome? CCCCCC1=C2CNC(CC(C)C)(C(=O)OC)C=C2C(C)C1=O (stereo unspecified) no

---

# target_system: Concanavalin-A (Canavalia ensiformis)
# experimental_details: compounds binding concanavalin A lectin – biochemical, small-molecule microarray, Alexa647 label, 635 nm, artefact control for SMM control protein annotation, primary screen (AID 1127)
# conditions: ConA-A647 binding fluorescence, higher = more signal
Hi all, reminder that labels come from composite z-score, split as lower bin = under 0.4, middle bin = from 0.4 up to 1, upper bin = 1 and over

A selection of reference data follows.
molecule	target_system	category
C[N+](C)(C)CCCCNC(=O)[C@H]1C[C@H]2C(=O)N[C@@H](Cc3ccccc3)C(=O)N2[C@H]1c1cccc(OCCO)c1	Concanavalin-A (Canavalia ensiformis)	upper bin
CC(C)C[C@@H]1NC(=O)[C@@]23C(=O)N[C@@H](Cc4ccccc4)C2[C@H](C)[C@@]2(C)O[C@H]2C3/C=C/C/C=C\CNC(=O)CNC1=O (stereo not given in full)	Concanavalin-A (Canavalia ensiformis)	middle bin
COC(=O)[C@@]1(Cc2ccc(F)cc2)[C@H]2c3cc(C(=O)N(C)C)n(C)c3C[C@H]2CN1C(=O)c1ccccc1	Concanavalin-A (Canavalia ensiformis)	middle bin

Which composite z-score category applies to `O=C1O[C@H](c2ccccc2)[C@H](c2ccccc2)N2[C@H]1[C@@H](C(=O)O)[C@]1(C(=O)Nc3ccc(C#CCCO)cc31)[C@H]2c1ccc(OCCO)cc1` here? middle bin

Which composite z-score category applies to `[N-]=[N+]=NCc1ccccc1[C@@H]1OC(c2ccc(OCCCO)cc2)=N[C@]1(Cc1ccccc1N=[N+]=[N-])C(=O)O` here? upper bin

Which composite z-score category applies to `O=C1C[C@@](C(=O)NC2CC2)(c2ccc([N+](=O)[O-])cc2)[C@@H](c2ccc(CO)cc2)N1C1CCCCC1` here? middle bin

Which composite z-score category applies to `COc1ccc(C(=O)Nc2ccc(CN3C(=O)[C@@]4(O[C@@H](CCn5cc(CCO)nn5)[C@H]([Si](C)(C)c5ccc(OC)cc5)[C@H]4C)c4ccccc43)cc2)cc1` here? upper bin
